- SUBJECT_OF_TEST: NANPNVDP (Plasmodium falciparum)
- TEST: BLI, target on sensor
Each entry below carries its reported Kd.
The reply should contain only the number, in nM.

As a guide, the following entries are already answered.
{"BINDER": "AB-007033 (antibody, V domains shown) VH: QMQLVESGGGVVQPGRSLRLSCAASGFTFSTYAMHWVRQAPGQGLEWVAVISYHSTNKYYADSVRGRFTISRDNSKNTLYLQMNSLRAEDTAVYYCARDGYSSSFFDFWGQGTLVTVSS VL: DIQMTQSPSTLSASVGDRVTITCRASQSISRWLAWYQQQPGKAPKLLMSGASVLESGVPSRFSGSGSGTEFTLTISSLQPDDFATYYCQHYNSYFVTFGQGTKVEIK", "Kd, nM": 8.08}
{"BINDER": "AB-007040 (antibody, V domains shown) VH: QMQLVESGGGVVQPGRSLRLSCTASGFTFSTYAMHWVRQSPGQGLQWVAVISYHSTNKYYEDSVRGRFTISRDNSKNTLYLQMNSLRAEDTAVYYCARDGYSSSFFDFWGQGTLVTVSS VL: DIQMTQSPSTLSASVGDRVAITCRASQSISRWLAWYQQQPGKAPKLLMSGASVLESGVPSRFSGSGSGTEFTLTISSLQPDDFATYYCQHYNSYYVTFGQGTKVEIK", "Kd, nM": 9.56}
{"BINDER": "AB-007034 (antibody, V domains shown) VH: QVQLVESGGGVVQPGRSLRLSCAASGFTFSTYAMHWVRQAPGQGLEWVAVISYHSTNKYYADSVRGRFTISRDNSKNTLYLQMNSLRAEDTAVYYCARDGYSSSFFDFWGQGTLVTVSS VL: DIQMTQSPSTLSASVGDRVTITCRASQSISRWLAWYQQQPGKAPKLLISGASVLESGVPSRFSGSGSGTEFTLTISSLQPDDFATYYCQHYNSYFVTFGQGTKVEIK", "Kd, nM": 11.5}
{"BINDER": "AB-007065 (antibody, V domains shown) VH: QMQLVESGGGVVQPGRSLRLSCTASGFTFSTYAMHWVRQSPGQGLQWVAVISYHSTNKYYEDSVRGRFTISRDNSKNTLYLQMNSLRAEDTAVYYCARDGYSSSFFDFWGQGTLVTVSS VL: DIQMTQSPSTLSASVGDRVAITCRASQSISRWLAWYQQQPGKAPKLLMSKASVLESGVPSRFSGSGSGTEFTLTISSLQPDDFATYYCQHYNSYFVTFGQGTKVEIK", "Kd, nM": 15.8}

Now for another entry.
Item AB-007029 (antibody, V domains shown) VH: QVQLVESGGGVVQPGRSLRLSCTASGFTFSTYAMHWVRQSPGQGLQWVAVISYHSTNKYYEDSVRGRFTISRDNSKNTLYLQMNSLRAEDTAVYYCARDGYSSSFFDFWGQGTLVTVSS VL: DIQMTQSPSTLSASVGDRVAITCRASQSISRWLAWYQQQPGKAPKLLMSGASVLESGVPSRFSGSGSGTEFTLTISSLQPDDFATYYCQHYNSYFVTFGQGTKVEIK has what recorded Kd?
13.2
